All values here come from patent US20250027068.

- target under test: pooled human IgG
assay endpoint: Enzyme Activity Endpoint Assay (purified): Fc (ng/µL)
Return type: number; implicit unit ng/µL.

Query: Return reported Enzyme Activity Endpoint Assay (purified): Fc. Input protein: PRT-138 (protein) MRNATEAYAKEVPHQITSVWTKGVTPPTPEQFRYNNEDVIHAPYLAHQGWYDITKAFDGKDNLLCGAATAGNMLHWWFDQNKTEIEAYLSKHPEKQKIIFNNQELFDLKAAIDTKDSQTNSQLFNYFRDKAFPNLSARQLGVMPDLVLDMFINGYYLNVFKTQSTDVNRPYQDKDKRGGIFDAVFTRGDQTTLLTARHDLKNKGLNDISTIIKQELTEGRALALSHTYANVSISHVINLWGADFNAEGNLEAIYVTDSDANASIGMKKYFVGINAHGHVAISAKKIEGENIGAQVLGLFTLSSGKDIWQKLS
Result: 215
